biological target: human orexin 1 receptor (hOx1R) (Homo sapiens, UniProt O43613); construct: expressed in transfected cells; test: Calcium accumulation in cells (FLIPR), antagonism of orexin A, hOx1R; assay type: cell-based; conditions: cells expressing human orexin 1 receptor; IC50 vs orexin A converted by Cheng and Prusoff correction
Sequence (O43613 whole entry): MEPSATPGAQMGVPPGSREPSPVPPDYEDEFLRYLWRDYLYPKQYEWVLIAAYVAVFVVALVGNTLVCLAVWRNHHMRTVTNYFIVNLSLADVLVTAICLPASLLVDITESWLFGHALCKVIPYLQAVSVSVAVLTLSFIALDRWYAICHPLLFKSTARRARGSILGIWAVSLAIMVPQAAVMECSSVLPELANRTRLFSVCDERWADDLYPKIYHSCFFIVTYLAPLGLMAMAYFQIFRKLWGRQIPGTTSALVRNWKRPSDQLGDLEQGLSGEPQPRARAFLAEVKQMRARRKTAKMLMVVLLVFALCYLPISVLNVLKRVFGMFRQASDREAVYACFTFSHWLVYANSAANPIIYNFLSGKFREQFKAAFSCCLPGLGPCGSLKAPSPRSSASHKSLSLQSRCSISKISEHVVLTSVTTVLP
parameter: Kd
Field: value (include unit after the number)

# count of solved cases: 3
## Input What value of measured Kd is listed for `CN(C(=O)c1ccccc1)[C@H](CCNC(=O)c1cc2ccccc2cn1)Cc1ccccc1` ?
## Output 5450 nM

## Input What value of measured Kd is listed for `CN(C(=O)c1ccc2c(c1)OCO2)[C@H](CCNC(=O)c1nc2ccccc2o1)Cc1ccccc1` ?
## Output 3990 nM

## Input What value of measured Kd is listed for `CN(C(=O)c1cccc2c1ccn2C)[C@H](CCNC(=O)c1ccccn1)Cc1ccccc1` ?
## Output 193 nM

***
## Input What value of measured Kd is listed for `COc1ccc(C(=O)N(C)[C@H](CCNC(=O)c2ccccn2)Cc2ccccc2)cc1` ?
## Output 909 nM

## Input What value of measured Kd is listed for `COc1cc(F)cc(C(=O)N(C)[C@H](CCNC(=O)c2cccn2C)Cc2ccccc2)c1` ?
## Output 811 nM

## Input What value of measured Kd is listed for `CN(C(=O)c1cccc2c1OCO2)[C@@H](CCNC(=O)c1ccccn1)Cc1ccccc1` ?
## Output 3830 nM

## Input What value of measured Kd is listed for `CN(C(=O)c1cccc2ccccc12)[C@H](CCNC(=O)c1ccccn1)Cc1ccc(F)cc1` ?
## Output 28 nM

## Input What value of measured Kd is listed for `COc1ccc(C(=O)N(C)[C@H](CCNC(=O)c2ccccn2)Cc2ccccc2)cc1OC` ?
## Output 1400 nM
